# System: HEK-293T
# test.summary: Incucyte cell viability with HEK293T; also: unitless GR value; below 1 slowed growth and below 0 cell loss
# Format: toxicity, cell-based
# condition.context: human, 0 h, 10 µM, compound concentration 10 uM, replicate number 1
Class field: derived from Growth Rate; ranges lower segment (below -0.3), middle segment (-0.3 to below 0.5), upper segment (0.5 or more)

compound	assigned.category
CC(C)(O)c1coc(S(=O)(=O)NC(=O)Nc2c3c(cc4c2CCC4)CCC3)c1	middle segment
CC[C@@H](CO)Nc1nc(Nc2cccc(NC(=O)C(C)(C)C)c2)ncc1F	middle segment
COc1cc(C(=O)O)ncc1C#Cc1ccccc1NS(=O)(=O)c1cccc2c(N(C)C)ccnc12 [MSC-0516]	lower segment
Cc1ccc(-n2nc(C(C)(C)C)cc2NC(=O)Nc2ccccc2F)cc1	lower segment

Which bin, given its Growth Rate, does C[S+](C)[O-] [DIMETHYL SULFOXIDE] occupy?
middle segment

Which bin, given its Growth Rate, does `COc1cc(-c2cncc(-c3ccc(N4CCN(C(C)C)CC4)cc3)c2C)cc(F)c1C(N)=O` occupy?
lower segment

Which bin, given its Growth Rate, does `N=C(N)NCCC[C@@H](NC(=O)C(c1ccccc1)c1ccccc1)C(=O)NCc1ccc(CNC(N)=O)cc1.O=C(O)C(F)(F)F` occupy?
upper segment

Which bin, given its Growth Rate, does `COc1cc(-c2cn(C)c(=O)c3cnccc23)cc(OC)c1CN(C)C` occupy?
upper segment

Which bin, given its Growth Rate, does CC(C)CNc1nc(N2CCN(CC3CCCOC3)CC2)ncc1C(=O)NCc1ccccc1 (stereo not given) occupy?
upper segment

Which bin, given its Growth Rate, does Cc1nc(-c2ccc(C(F)(F)F)cc2)sc1C(=O)NCc1ccc(OC(C)(C)C(=O)O)cc1 [GW590735] occupy?
upper segment

* * *

# Tested on: U2OS
# test.summary: Incucyte cell viability with U2OS; also: unitless GR value; below 1 slowed growth and below 0 cell loss
# Assay type: toxicity, cell-based
# condition.context: human, 18 h, 10 µM, compound concentration 10 uM, replicate number 2
measured.parameter: Growth Rate
Give a plain numeric answer without units written out.

Examples with their reported Growth Rate follow.
compound	target	measured.parameter	readout.value
CCC(=O)N[C@H]1CC[C@@H](C(=O)N(C)c2ccc(-c3nc4ccccc4o3)cc2)C1	U2OS	Growth Rate	0.87
Cc1cccc(-c2nn3c(c2-c2ccnc4ccc(C(N)=O)cc24)CCC3)n1	U2OS	Growth Rate	0.87
CCOC(=O)C1=C(C)NC(C)=C(C(=O)OC)C1c1cccc([N+](=O)[O-])c1 (stereo not given)	U2OS	Growth Rate	0.86

So what's the measured Growth Rate for this one? `CCN1CCN(Cc2ccc(NC(=O)Nc3ccc(Oc4cc(NC)ncn4)cc3)cc2C(F)(F)F)CC1`
0.41

So what's the measured Growth Rate for this one? CCOC(=O)c1cncn1[C@H](C)c1ccccc1 [ETOMIDATE]
0.87

* * *

# key: entry, value: Growth Rate
# System: HEK-293T
# test.summary: Incucyte cell viability with HEK293T; also: unitless GR value; below 1 slowed growth and below 0 cell loss
# Format: toxicity, cell-based
# condition.context: human, 0 h, 10 µM, compound concentration 10 uM, replicate number 2
Give a plain numeric answer without units written out.

molecule	readout.value
CN(C)CC#Cc1ccc2[nH]c3c(c2c1)-c1nc(N)ncc1CCC3	0.54

So what's the measured Growth Rate for this one? COc1cc(O)c(C(CC(=O)N2C[C@H](C)C[C@H](C)C2)c2ccc3c(c2)OCO3)c(OC)c1 (stereo not given in full)
-0.14

So what's the measured Growth Rate for this one? `COc1ccc(Br)cc1S(=O)(=O)NC(=O)/C=C/c1cc(Cl)ccc1Cc1ccc2ccccc2c1`
0.17

So what's the measured Growth Rate for this one? `N[C@@H]1CCCN(c2c(/C=C3\SC(=O)NC3=O)cccc2-c2ccccc2)C1`
-0.99

So what's the measured Growth Rate for this one? `N#CC[C@H](C1CCCC1)n1cc(-c2ncnc3[nH]ccc23)cn1`
-0.15

* * *

# Test system: U2OS
# test.summary: Incucyte cell viability with U2OS; also: unitless GR value; below 1 slowed growth and below 0 cell loss
# Format: toxicity, cell-based
# condition.context: human, 18 h, 10 µM, compound concentration 10 uM, replicate number 1
Values of Growth Rate strictly less than 0.9 map to met, and values of at least 0.9 map to not met.

Field: example entries. Status: answers known.
molecule	assigned.category
CCN(C(=O)c1cc(F)ccc1Oc1cncnc1N1CC2(CCN(C[C@H]3CC[C@H](NS(=O)(=O)CC)CC3)CC2)C1)C(C)C	met
CN1CCN([C@H]2CC[C@@H](n3cc(-c4ccc(Oc5ccccc5)cc4)c4c(N)ncnc43)CC2)CC1	met
CC[C@]1(C)C[C@@H](OC(=O)CSc2nnc(N)[nH]2)[C@@]2(C)[C@H](C)CC[C@@]3(CCC(=O)[C@H]32)[C@@H](C)[C@@H]1O	not met
CC1(C)CCC(CN2CCN(c3ccc(C(=O)NS(=O)(=O)c4ccc(NCC5CCOCC5)c([N+](=O)[O-])c4)c(Oc4cnc5[nH]ccc5c4)c3)CC2)=C(c2ccc(Cl)cc2)C1	met
CCN1C(=O)N(c2c(F)c(OC)cc(OC)c2F)Cc2cnc3[nH]c(CN4CCOCC4)cc3c21	met

Field: below-cutoff. Rule: recorded Growth Rate strictly less than 0.9. Subject: `CN1CCC(F)(Cn2cnc(-c3ccc(F)cn3)c2-c2ccnc3[nH]ccc23)CC1`
met

Field: below-cutoff. Rule: recorded Growth Rate strictly less than 0.9. Subject: `CCc1ccc(-c2ncn(CC3(F)CCN(C)CC3)c2-c2ccnc3[nH]ccc23)nc1`
met

Field: below-cutoff. Rule: recorded Growth Rate strictly less than 0.9. Subject: `Cc1nnsc1C(=O)Nc1ccc(-n2nc(C(F)(F)F)cc2C(F)(F)F)cc1`
not met

* * *

# Tested on: Fibroblast
# test.summary: Incucyte cell viability with human fibroblast; also: unitless GR value; below 1 slowed growth and below 0 cell loss
# Format: toxicity, cell-based
# condition.context: 18 h, 10 µM, compound concentration 10 uM, replicate number 2
measured.parameter: Growth Rate
Give a plain numeric answer without units written out.

Examples with their reported Growth Rate follow.
compound	Growth Rate
CCN1C(=O)/C(=C(\NC2CCN(C)CC2)c2ccc3c(c2)OCO3)c2cc(C(C)=O)ccc21	0.5
Cl.NC(=O)c1ccccc1Nc1nc(-c2ccc(N3CCOCC3)cc2)cc2ncccc12	-0.14
CN1CC(=O)N(C)c2cnc(Nc3ccc(NC(=O)Nc4cccc(C(=O)O)c4)cc3)nc21	0.99
COc1nc2ccc([C@@](O)(c3ccccc3)C3CCN(C(C)=O)CC3)cc2c(Cl)c1Cc1ccc(-n2cccn2)cc1	0.98
CCn1c(-c2nonc2N)nc2c(C#CC(C)(C)O)ncc(OCC3CCCNC3)c21 (configuration not stated)	0.47

So what's the measured Growth Rate for this one? `CCCS(=O)(=O)Nc1ccc(F)c(Nc2ncnc3cnc(-n4cnc(C)c4)nc23)c1F`
0.69

So what's the measured Growth Rate for this one? `C[C@@H](COCCC(=O)N1CCN(c2ncc(C(F)(F)F)cn2)CC1)Nc1cn[nH]c(=O)c1C(F)(F)F`
0.13

So what's the measured Growth Rate for this one? `CNC(=O)c1c(F)cccc1Nc1nc(Nc2cc3c(cc2OC)CCN3C(=O)CN(C)C)nc2[nH]ccc12`
-0.62

So what's the measured Growth Rate for this one? `CNC(=O)c1c[nH]c2ccc(Nc3nccc(-c4ccccn4)n3)cc12`
0.6

So what's the measured Growth Rate for this one? `CCOP(=O)(OCC)C(=Cc1cc(C(C)(C)C)c(O)c(C(C)(C)C)c1)P(=O)(OCC)OCC`
0.7

So what's the measured Growth Rate for this one? `C[C@@H]1Cc2c([nH]c3ccccc23)[C@@H](c2c(F)cc(/C=C/C(=O)O)cc2F)N1CC(C)(C)F`
0.88

So what's the measured Growth Rate for this one? `C=CC(=O)Nc1ccc2[nH]c(=O)n(C3CCN(Cc4ccc(-c5ccc6c(c5)NC(=O)CO6)cc4)CC3)c2c1`
0.52

* * *

# Test system: Fibroblast
# test.summary: Incucyte cell viability with human fibroblast; also: unitless GR value; below 1 slowed growth and below 0 cell loss
# Type: toxicity, cell-based
# condition.context: 18 h, 10 µM, compound concentration 10 uM, replicate number 2
measured.parameter: Growth Rate
Give a plain numeric answer without units written out.

compound	target	Growth Rate
Cn1cnc(Cn2ccc3ccc(CNCc4[nH]c5ccccc5c4[C@@H]4NC(=O)c5ccc(O)cc54)cc32)c1	Fibroblast	0.38

Now turn to the next compound.
What Growth Rate appears in the records for this compound with Fibroblast? C[C@@H]1CC[C@@]2(OC1)O[C@H]1[C@@H](O)[C@H]3[C@@H]4CC[C@H]5C[C@@H](O[C@@H]6O[C@H](CO)[C@H](O[C@@H]7O[C@H](CO)C(O)[C@H](O[C@@H]8OC[C@@H](O)[C@H](O)[C@H]8O)[C@H]7O[C@@H]7O[C@H](CO)[C@H](O)[C@H](O[C@@H]8O[C@H](CO)[C@@H](O)[C@H](O)[C@H]8O)[C@H]7O)[C@H](O)[C@H]6O)[C@H](O)C[C@]5(C)[C@H]4CC[C@]3(C)[C@H]1[C@@H]2C (some centres not stated)
0.73

* * *

# System: U2OS
# test.summary: Incucyte cell viability with U2OS; also: unitless GR value; below 1 slowed growth and below 0 cell loss
# Assay type: toxicity, cell-based
# condition.context: human, 0 h, 10 µM, compound concentration 10 uM, replicate number 1
# key: entry, value: Growth Rate
Give a plain numeric answer without units written out.

Examples with their reported Growth Rate follow.
molecule	Growth Rate
CCOC(=O)C1=C(C)NC(C)=C(C(=O)OC)C1c1cccc([N+](=O)[O-])c1 (stereo unspecified)	0.22
CN(C(=O)c1cnn2cccnc12)c1cc2c(cc1N1CCOCC1)C(=O)N(C[C@@H](F)C(C)(C)O)C2	0.99

So what's the measured Growth Rate for this one? `Cc1cc(NC(=O)c2cccc(NC(=O)/C=C/CN(C)C)c2)ccc1Nc1nccc(-c2cccnc2)n1`
-1

So what's the measured Growth Rate for this one? `COc1cc(-c2cn(C)c(=O)c3cnccc23)c(OC)cc1CN(C)C`
0.29

So what's the measured Growth Rate for this one? COC(=O)C1=C(C)NC(C)=C(C(=O)OC(C)C)C1c1cccc2nonc12 (stereo unspecified)
0.46

So what's the measured Growth Rate for this one? `O=C1N=C(NCc2cccs2)S/C1=C\c1ccc2ncccc2c1`
0.58

So what's the measured Growth Rate for this one? `COc1ccc(OC)c(-c2ccc(NC(=O)c3ccncc3F)cc2)c1`
-0.54

So what's the measured Growth Rate for this one? `CC(C)C[C@H](NC(=O)[C@@H](O)[C@H](N)Cc1ccccc1)C(=O)O`
0.42

So what's the measured Growth Rate for this one? `Clc1ccc(-c2nc3sccn3c2/C=N/OCc2ccc(Cl)c(Cl)c2)cc1`
0.48

So what's the measured Growth Rate for this one? `O=C1NCCSc2c1sc1ccc(O)cc21`
0

So what's the measured Growth Rate for this one? `CO[C@H]1CC[C@H](N(c2cc(F)c(Oc3ncc(Cn4nccn4)cc3C(F)(F)F)cc2C(=O)O)C(=O)[C@H]2CC[C@H](C)CC2)CC1`
0.66

So what's the measured Growth Rate for this one? `CCCNc1ccc2ncc(-c3ccncc3)n2n1`
-1

So what's the measured Growth Rate for this one? CCNc1ccc(-c2nn(-c3ccccc3C)c3c2C(C)Cc2nc(NC(=O)OC)sc2-3)cn1.O=C(O)C(F)(F)F (stereo unspecified)
-0.28

So what's the measured Growth Rate for this one? C[C@@H]1CC[C@@]2(OC1)O[C@H]1[C@@H](O)[C@H]3[C@@H]4CC[C@H]5C[C@@H](O[C@@H]6O[C@H](CO)[C@H](O[C@@H]7O[C@H](CO)C(O)[C@H](O[C@@H]8OC[C@@H](O)[C@H](O)[C@H]8O)[C@H]7O[C@@H]7O[C@H](CO)[C@H](O)[C@H](O[C@@H]8O[C@H](CO)[C@@H](O)[C@H](O)[C@H]8O)[C@H]7O)[C@H](O)[C@H]6O)[C@H](O)C[C@]5(C)[C@H]4CC[C@]3(C)[C@H]1[C@@H]2C (stereo partly specified)
0.49

So what's the measured Growth Rate for this one? `CC(C)(O)CNC(=O)N1C(=O)N(c2cccc(C(F)(F)F)c2)C2=C(C(=O)CC2)[C@@H]1c1ccc(C#N)cc1`
0.14

So what's the measured Growth Rate for this one? `S=c1[nH]nc(-c2cccs2)n1-c1ccccc1`
0.53
